Data provenance is ChEMBL document CHEMBL1961873.

# assayed.system: Serine/threonine-protein kinase Nek2 (Homo sapiens) (UniProt P51955);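 note: reported values are mean percent inhibition of NEK2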
# Sequence (whole entry): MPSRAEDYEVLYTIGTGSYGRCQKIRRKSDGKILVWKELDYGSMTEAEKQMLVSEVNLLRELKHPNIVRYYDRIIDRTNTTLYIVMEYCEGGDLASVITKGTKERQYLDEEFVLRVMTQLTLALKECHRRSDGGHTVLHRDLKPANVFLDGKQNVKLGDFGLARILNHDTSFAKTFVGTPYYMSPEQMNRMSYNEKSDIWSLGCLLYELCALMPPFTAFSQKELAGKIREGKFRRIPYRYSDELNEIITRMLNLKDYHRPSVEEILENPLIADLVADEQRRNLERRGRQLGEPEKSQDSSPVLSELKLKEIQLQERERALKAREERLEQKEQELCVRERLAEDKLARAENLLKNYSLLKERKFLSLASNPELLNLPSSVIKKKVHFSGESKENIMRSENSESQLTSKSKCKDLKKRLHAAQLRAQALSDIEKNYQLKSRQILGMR
# experimental.setup: at 1 µM
readout.kind: inhibition

[
  {
    "smiles.structure": "[O-][S+]1CCN(Cc2ccc(-c3ccc4ncnc(Nc5ccc(OCc6ccccc6)c(Cl)c5)c4c3)o2)CC1",
    "readout.kind": "inhibition",
    "result": "0.41%"
  },
  {
    "smiles.structure": "COc1cc2ncnc(Nc3ccc4c(cnn4Cc4ccccc4)c3)c2cc1OC",
    "readout.kind": "inhibition",
    "result": "-2.69%"
  },
  {
    "smiles.structure": "COc1cc2ncnc(Nc3ccc(C)c(O)c3)c2cc1OC",
    "readout.kind": "inhibition",
    "result": "7.02%"
  }
]

====

# Test system: Epidermal growth factor receptor (Homo sapiens), P00533 [L861Q]
# Sequence (P00533 whole entry L861Q): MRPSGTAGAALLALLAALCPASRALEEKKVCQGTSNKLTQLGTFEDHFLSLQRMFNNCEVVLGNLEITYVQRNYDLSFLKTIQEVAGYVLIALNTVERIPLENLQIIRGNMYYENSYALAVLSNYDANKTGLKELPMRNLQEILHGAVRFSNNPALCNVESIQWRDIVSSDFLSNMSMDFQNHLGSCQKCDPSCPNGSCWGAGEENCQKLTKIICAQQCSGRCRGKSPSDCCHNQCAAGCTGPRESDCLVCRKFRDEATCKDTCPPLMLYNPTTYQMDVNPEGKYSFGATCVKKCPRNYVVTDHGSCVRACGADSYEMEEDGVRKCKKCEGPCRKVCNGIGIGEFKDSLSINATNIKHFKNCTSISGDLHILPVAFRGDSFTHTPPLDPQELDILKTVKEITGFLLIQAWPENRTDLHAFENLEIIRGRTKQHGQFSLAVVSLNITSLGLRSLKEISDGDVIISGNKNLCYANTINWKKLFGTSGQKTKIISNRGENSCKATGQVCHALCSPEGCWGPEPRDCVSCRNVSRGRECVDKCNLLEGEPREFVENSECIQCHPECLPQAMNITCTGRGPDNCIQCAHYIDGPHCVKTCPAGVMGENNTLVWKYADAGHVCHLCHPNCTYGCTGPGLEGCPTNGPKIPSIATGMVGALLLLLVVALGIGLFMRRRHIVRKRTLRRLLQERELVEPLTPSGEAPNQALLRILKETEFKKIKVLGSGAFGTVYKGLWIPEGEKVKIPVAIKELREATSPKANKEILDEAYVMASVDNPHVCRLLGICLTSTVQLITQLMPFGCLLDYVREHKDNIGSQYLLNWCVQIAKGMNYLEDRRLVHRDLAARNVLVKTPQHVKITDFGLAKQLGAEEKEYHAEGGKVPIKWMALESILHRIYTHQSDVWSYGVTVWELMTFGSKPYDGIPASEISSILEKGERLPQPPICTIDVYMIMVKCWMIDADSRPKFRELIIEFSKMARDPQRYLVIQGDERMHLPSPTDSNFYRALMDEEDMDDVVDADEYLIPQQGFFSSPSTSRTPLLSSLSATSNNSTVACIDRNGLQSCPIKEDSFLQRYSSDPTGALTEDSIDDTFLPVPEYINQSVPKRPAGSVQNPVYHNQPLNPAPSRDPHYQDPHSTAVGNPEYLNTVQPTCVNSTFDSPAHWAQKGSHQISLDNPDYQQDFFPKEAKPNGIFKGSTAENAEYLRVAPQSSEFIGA
# experimental.setup: at 0.1 µM

[
  {
    "smiles.structure": "COc1cc2ncnc(Nc3ccc(C)c(O)c3)c2cc1OC",
    "unit.name": "%",
    "inhibition": 77.2
  },
  {
    "smiles.structure": "Cc1cc(-c2ccccn2)cc(C)c1/C=C/c1cncc(-c2nn[nH]n2)c1",
    "unit.name": "%",
    "inhibition": 2.42
  },
  {
    "smiles.structure": "Cc1cc(Cl)cc2c1NC(=O)C2=NNc1ccc(S(N)(=O)=O)cc1",
    "unit.name": "%",
    "inhibition": 1.56
  },
  {
    "smiles.structure": "N#Cc1c(NC(=O)c2ccccc2F)sc2c1CCCC2",
    "unit.name": "%",
    "inhibition": -0.67
  },
  {
    "smiles.structure": "Cc1ccc2c(-c3ccnc(Nc4ccc5c(c4)OCCO5)n3)c(-c3ccc(C(F)(F)F)cc3)nn2n1",
    "unit.name": "%",
    "inhibition": -1.17
  },
  {
    "smiles.structure": "COc1cc2ncn(-c3cc(OCc4ccccc4S(C)(=O)=O)c(C#N)s3)c2cc1OC",
    "unit.name": "%",
    "inhibition": 3.09
  },
  {
    "smiles.structure": "Cc1ccc(Nc2ccnc(Nc3cccc(C(N)=O)c3)n2)cc1O",
    "unit.name": "%",
    "inhibition": 4.18
  },
  {
    "smiles.structure": "NC(=O)c1cccc(Nc2nccc(Nc3cccc(F)c3)n2)c1",
    "unit.name": "%",
    "inhibition": 0.09
  },
  {
    "smiles.structure": "CN1CCN(C(=O)c2ccc(NC(=O)Nc3ccc(N(C)c4ccnc(Nc5ccc(CS(C)(=O)=O)cc5)n4)cc3)cc2)CC1",
    "unit.name": "%",
    "inhibition": 1.12
  },
  {
    "smiles.structure": "COc1cccc(-n2nc(C)c3c(N/N=C(\\C)c4ccncc4)ncnc32)c1",
    "unit.name": "%",
    "inhibition": -0.04
  },
  {
    "smiles.structure": "CC(C)c1ccc2c(c1)NC(=O)/C2=N/Nc1ccc(S(N)(=O)=O)cc1",
    "unit.name": "%",
    "inhibition": -0.48
  },
  {
    "smiles.structure": "c1ccc(Nc2ncc(-c3ccccc3)o2)cc1",
    "unit.name": "%",
    "inhibition": 2.75
  },
  {
    "smiles.structure": "Cc1ccc(C(=O)NC2CC2)cc1-c1ccc2[nH]ncc2c1",
    "unit.name": "%",
    "inhibition": -0.66
  },
  {
    "smiles.structure": "COC(=O)c1cncc(/C=C/c2c(C)cc(O)cc2C)c1",
    "unit.name": "%",
    "inhibition": 3.47
  },
  {
    "smiles.structure": "Cc1cc(O)cc(C)c1/C=C/c1cncc(C(=O)N(C)C)c1",
    "unit.name": "%",
    "inhibition": 3.53
  },
  {
    "smiles.structure": "COc1cc(Nc2nccc(-c3cnn4ncccc34)n2)cc(OC)c1",
    "unit.name": "%",
    "inhibition": 0.35
  },
  {
    "smiles.structure": "N#Cc1cccc(Nc2nccc(-c3cnn4ncccc34)n2)c1",
    "unit.name": "%",
    "inhibition": 4.53
  },
  {
    "smiles.structure": "C[C@@H](Oc1cc(-n2cnc3ccc(OC[C@@H](O)CO)cc32)sc1C(N)=O)c1ccccc1Cl",
    "unit.name": "%",
    "inhibition": -1.31
  }
]
